test system: S. Mutans; test: quantitative serial dilution test, minimal inhibitory concentration; type: cell-based; conditions: Streptococcus mutans, brain-heart infusion broth, half strength, 37° C., 36 hours
Structures can show the parent of a compound that is named as a salt.
Measured Attribute: MIC (µg/mL)

Please review the entries below; each comes with its answer.
# Compound, MIC, µg/mL
measured = [
    ("N=C(NCCCCCCNC(=N)NC(=N)Nc1ccc(Cl)cc1)NC(=N)Nc1ccc(Cl)cc1 [chlorhexidine diacetate, reference compound]", 0.078),
    ("N=C(NCCCCCCNC(=N)NC(=O)Nc1ccc(Cl)cc1)NC(=O)Nc1ccc(Cl)cc1 [diacetate]", 0.078),
    ("N=C(NCCCCCCNC(=N)NC(=O)Nc1cccc(C(F)(F)F)c1)NC(=O)Nc1cccc(C(F)(F)F)c1 [dihydrochloride]", 0.312),
]

P = N=C(NCCCCCCNC(=N)NC(=O)Nc1ccc(Br)cc1)NC(=O)Nc1ccc(Br)cc1 [diacetate]
Q = CCCCC(CC)CNC(=O)NC(=N)NCCCCCCNC(=N)NC(=O)NCC(CC)CCCC (centres unmarked)
# input Thinking about recorded MIC values, which is higher, P or Q ? // caller expects the label of the chosen entry
# output Q

---

tested on: S. Mutans; assay: quantitative serial dilution test, minimal inhibitory concentration; format: cell-based; details: Streptococcus mutans, brain-heart infusion broth, half strength, 37° C., 36 hours
Counter-ions that a name gives are not always drawn.
Measured Attribute: MIC (µg/mL)

Please review the entries below; each comes with its answer.
# Compound, Measured Target, Value Measured
rows = [
    ("N=C(NCCCCCNC(=N)NC(=O)Nc1ccc(Cl)cc1)NC(=O)Nc1ccc(Cl)cc1 [monoacetate]", "S. Mutans", 0.078),
    ("N=C(NC(=O)NCCCCCCNC(=O)NC(=N)Nc1ccc(Cl)cc1)Nc1ccc(Cl)cc1", "S. Mutans", 2.5),
    ("N=C(NCCCCCCCNC(=N)NC(=O)Nc1ccc(Cl)cc1)NC(=O)Nc1ccc(Cl)cc1 [dihydrochloride]", "S. Mutans", 0.312),
    ("N=C(NCCCCNC(=N)NC(=O)Nc1ccc(Cl)cc1)NC(=O)Nc1ccc(Cl)cc1", "S. Mutans", 0.625),
]

a = N=C(NCCCCCCNC(=N)NC(=O)Nc1ccc(F)cc1)NC(=O)Nc1ccc(F)cc1 [diacetate]
b = N=C(NCCCCCCNC(=N)NC(=O)Nc1ccccc1Cl)NC(=O)Nc1ccccc1Cl [diacetate]
c = N=C(NCCCCCCNC(=N)NC(=O)Nc1ccccc1)NC(=O)Nc1ccccc1 [1,6-bis(phenylcarbamylguanidino)hexane]
d = N=C(NCCCCCCNC(=N)NC(=O)Nc1cccc(Cl)c1)NC(=O)Nc1cccc(Cl)c1 [diacetate]
# input # sort list by recorded MIC, greatest to least // respond by listing labels in the order requested
# output c, b, a, d
(c: 0.625 µg/mL, b: 0.312 µg/mL, a: 0.156 µg/mL, d: 0.078 µg/mL)

Cited source: patent US4022962A
